Tested on: KPL-4 cells
ASSAY_EXPLANATION: Tumor cell proliferation assay (CellTiter-Glo)
Assay type: cell-based
CONDITION: KPL4; 72 h drug exposure
Protocol: Compounds were tested in a cell-based assay that measures the capacity of the compounds to inhibit tumour cell proliferation following a 72 h drug exposure. Cell viability is determined using CellTiter-Glow® (CTG, Promega, cat# G757112/3). […] Cells were plated at 3000-5000 cells/well (depending on the cell lines) in 90 μL growth medium on MTPs (Corning; #3603, black plate, clear flat bottom). […] Chemiluminescence values for the t=72 hour samples were determined. […]
Counter-ions that a name gives are not always drawn.
OUTCOME_MEASURE: pIC50
Recall that pIC50 is obtained by taking minus log10 of the concentration measured in molar.

The following compounds have reported results that may help.
> print(dat)
                                   compound  study.target  observed
1  Cc1nc2cc(-c3ccccc3)c(-c3ccc(C4(N)CCC4)cc3)nn2c1-c1ccn[nH]1   KPL-4 cells      5.43
2  NC1(c2ccc(-c3nn4ccnc4cc3-c3ccccc3)cc2)CCC1   KPL-4 cells      5.45

Q) # value lookup — system KPL-4 cells, readout pIC50, item NC1(c2ccc(-c3nn4c(Br)cnc4cc3-c3ccccc3)cc2)CCC1 [Example 4-8, hydrochloride]
A) 5.62
